Recorded Cmax by entry
- Method: Pharmacokinetics after a single oral dose in SD rats
- Format: in vivo
- Run conditions: Sprague-Dawley, rat, plasma, single oral dose in 0.5% methylcellulose
Please respond with the number in ng/mL and leave the unit unwritten.

CCn1nc2nc(C)c(N3CCN(CC(=O)N4CC(O)C4)CC3)cc2c1N(C)c1nc(-c2ccc(F)cc2)c(C#N)s1: 96.2
CCc1nc2c(C)cc(N3CCN(CC(=O)N4CC(O)C4)CC3)cn2c1N(C)c1nc(-c2ccc(F)cc2)c(C#N)s1: 889
CCc1nn2cc(F)c(N3CC4(CN(C(=O)[C@H]5CCOC5)C4)C3)cc2c1N(C)c1nc(-c2ccc(F)cc2)c(C#N)s1: 732

Bench note: what Cmax did CCc1nn2cc(C)c(N3CC4(CN(C(=O)[C@H]5CCOC5)C4)C3)cc2c1N(C)c1nc(-c2ccc(F)cc2)c(C#N)s1 show?
336

---

- Method: Pharmacokinetics after a single oral dose in SD rats
- Format: in vivo
- Run conditions: Sprague-Dawley, rat, plasma, single oral dose in 0.5% methylcellulose
Test readout: AUC (ng·h/mL)
Respond with the bare value in ng·h/mL.

Please review the following examples before continuing.
CCn1nc2nc(C)c(N3CCN(CC(=O)N4CC(O)C4)CC3)cc2c1N(C)c1nc(-c2ccc(F)cc2)c(C#N)s1: 222
CN(c1nc(-c2ccc(F)cc2)c(C#N)s1)c1c(C2CC2)nn2cc(F)c(N3CCN(CC(=O)N4CC(O)C4)CC3)cc12: 963

Next molecule, AUC to be filled in.
# query: AUC of entry CCn1nc2nc(C)c(N3CC4(CN(C(=O)C5CCOCC5)C4)C3)cc2c1N(C)c1nc(-c2ccc(F)cc2)c(C#N)s1
1090

---

- Method: Pharmacokinetics in beagle dogs
- Type: in vivo
- Run conditions: male, dog, plasma, iv, I.V. (1 mg/kg)
Test readout: C0 (µg/mL)
Respond with the bare value in µg/mL.

CCc1nc2c(C)cc(N3CCN(CC(=O)N4CC(O)C4)CC3)cn2c1N(C)c1nc(-c2ccc(F)cc2)c(C#N)s1: 5.12

Can you look up the measured C0 of CCn1nc2ncc(N3CC4(CN(C(=O)C5CCOCC5)C4)C3)cc2c1N(C)c1nc(-c2ccc(F)cc2)c(C#N)s1 for me?
0.786

Can you look up the measured C0 of CCc1nn2cc(F)c(N3CC4(CN(C(=O)[C@H]5CCOC5)C4)C3)cc2c1N(C)c1nc(-c2ccc(F)cc2)c(C#N)s1 for me?
1.07

I'd like to know its C0. The compound in question is CCc1nn2cc(F)c(N3CCN(CC(=O)N4CC(O)C4)CC3)cc2c1N(C)c1nc(-c2ccc(F)cc2)c(C#N)s1
2.29

---

- Assay target: Autotaxin (Homo sapiens)
- Construct: from tissue; host or cells: pooled human plasma
- Method: LPA formation in pooled human plasma (ex vivo autotaxin inhibition)
- Type: biochemical
- Run conditions: 2 hours incubation, LPA 20:4 by LC/MS/MS, read-out: LPA formation (20:4) (IC50)
Test readout: IC50

CCc1nn2c(C)cc(N3CCC4(CN(C[C@@H](O)CO)C4)C3)cc2c1N(C)c1nc(-c2ccc(F)cc2)c(C#N)s1 [Example 69]: 100 to 500 nM
CCn1nc2ncc(N3CCN(CC(=O)N4CC(O)C4)CC3)cc2c1N(C)c1nc(-c2ccc(F)cc2)c(C#N)s1 [Compound 115]: ≤ 100 nM
CCc1nn2ccc(N3CCC4(CCN(C(=O)N5CC(O)C5)CC4)C3)cc2c1N(C)c1nc(-c2ccc(F)cc2)c(C#N)s1 [Example 17]: ≤ 100 nM
CCn1nc2c(C)cc(N3CCN(CC(=O)N4CC(O)C4)CC3)cc2c1N(C)c1nc(-c2ccc(F)cc2)c(C#N)s1 [Compound 125]: 500 to 1000 nM

# IC50 lookup, item CCc1nn2c(C)cc(N3CCC4(CN(C(=O)N5CC(O)C5)C4)C3)cc2c1N(C)c1nc(-c2ccc(F)cc2)c(C#N)s1 [Example 36]
≤ 100 nM

For CCc1nn2c(C)cc(N3CC4(CN(C(=O)[C@H](C)O)C4)C3)cc2c1N(C)c1nc(-c2ccc(F)cc2)c(C#N)s1 [Example 62] , what is its reported IC50?
100 to 500 nM

Which IC50 value is on record for CCc1nn2c(C)cc(N3CC4(CN(C(=O)C5CCOCC5)C4)C3)cc2c1N(C)c1nc(-c2ccc(F)cc2)c(C#N)s1 [Example 41] ?
≤ 100 nM

Suppose we examine the compound CCc1nn2c(C)cc(N3CC4(CN(C(=O)OC5CCOC5)C4)C3)cc2c1N(C)c1nc(-c2ccc(F)cc2)c(C#N)s1 (stereo not shown) [Example 34] ; what IC50 value has been reported?
100 to 500 nM

What IC50 value was documented for this compound, Cc1cc(N2CC3(CN(C(=O)C4CN(C)C4)C3)C2)cc2c(N(C)c3nc(-c4ccc(F)cc4)c(C#N)s3)c(C3CC3)nn12 [Example 84] ?
≤ 100 nM

Quick one: IC50 of CCc1nn2c(C)cc(N3CCC4(CN(CC(O)CO)C4)C3)cc2c1N(C)c1nc(-c2ccc(F)cc2)c(C#N)s1 (stereo not shown) [Example 55] ?
100 to 500 nM

Which IC50 value is on record for CCc1nn2c(C)cc(N3CC4(CCN(C(=O)C(C)(C)O)C4)C3)cc2c1N(C)c1nc(-c2ccc(F)cc2)c(C#N)s1 [Example 53] ?
≤ 100 nM

Request the reported IC50 associated with CCc1nn2ccc(N3CCC4(CCN(C(=O)N5CC(O)C5)C4)C3)cc2c1N(C)c1nc(-c2ccc(F)cc2)c(C#N)s1 (stereo not shown) [Example 20]
≤ 100 nM

Recorded IC50 of Cc1cc(N2CCN(C[C@@H](O)CO)CC2)cc2c(N(C)c3nc(-c4ccc(F)cc4)c(C#N)s3)c(C3CC3)nn12 [Example 82] , please.
100 to 500 nM

---

- Method: Metabolic stability in human hepatocytes
- Format: in vitro ADME
- Run conditions: cryopreserved human hepatocytes 0.5 million/mL, compound 1 μM
Recorded metabolic stability (halftime in minutes), Human values for a group of molecules are listed next.
Express your answer in min, writing the number without its unit.

Find the recorded metabolic stability (halftime in minutes), Human belonging to CCc1nc2c(C)cc(N3CCN(CC(=O)N4CC(O)C4)CC3)cn2c1N(C)c1nc(-c2ccc(F)cc2)c(C#N)s1 and report it.
117.9

Which metabolic stability (halftime in minutes), Human reading was recorded for the molecule CCc1nn2cc(F)c(N3CC4(CN(C(=O)[C@H]5CCOC5)C4)C3)cc2c1N(C)c1nc(-c2ccc(F)cc2)c(C#N)s1 ?
76.6

---

- Assay target: Autotaxin (Homo sapiens)
- Construct: from tissue; host or cells: pooled human plasma
- Method: LPA formation in pooled human plasma (ex vivo autotaxin inhibition)
- Format: biochemical
- Run conditions: 2 hours incubation, LPA 18:2 by LC/MS/MS, read-out: LPA formation (18:2) (IC50)
- Protocol: Autotaxin is a plasma phosphodiesterase that converts lysophosphatidylcholine (LPC) into lysophosphatidic acid (LPA), therefore LPA formation was used to evaluate the potency of autotaxin inhibitors. The potency of compound was evaluated ex vivo in pooled human plasma. Various concentrations of compound were incubated with plasma for 2 hours, and the LPA 18:2 and 20:4 concentration was measured by LC/MS/MS. […]
Examples of compounds with documented IC50 follow.

Solved cases (5 shown):
CCc1nn2ccc(N3CCN(CC(=O)N4CC(O)C4)CC3)cc2c1N(C)c1nc(-c2ccc(F)cc2)c(C#N)s1: ≤ 100 nM
CCc1nn2cc(F)c(N3CCN(CC(=O)N4CC[C@@H](O)C4)CC3)cc2c1N(C)c1nc(-c2ccc(F)cc2)c(C#N)s1: ≤ 100 nM
CCc1nn2ccc(N3CCC4(CC3)CN(C(=O)N3CC(O)C3)C4)cc2c1N(C)c1nc(-c2ccc(F)cc2)c(C#N)s1: ≤ 100 nM
CCc1nn2c(C)cc(N3CC4(CN(C(=O)[C@H](C)O)C4)C3)cc2c1N(C)c1nc(-c2ccc(F)cc2)c(C#N)s1: 100 to 500 nM
CCc1nn2ccc(N3CCC4(CN(C(=O)N5CC(O)C5)C4)C3)cc2c1N(C)c1nc(-c2ccc(F)cc2)c(C#N)s1: ≤ 100 nM

Next up:
Observed IC50 on Autotaxin (Homo sapiens) for CCc1nn2cc(F)c(N3CCN(CC(=O)N4CC(O)C4)CC3)cc2c1N(C)c1nc(-c2ccc(F)cc2)c(C#N)s1 , please.
≤ 100 nM

---

- Assay target: Autotaxin (Homo sapiens, UniProt Q13822)
- Construct: from tissue; host or cells: pooled human plasma
- Method: LPA formation in pooled human plasma (ex vivo autotaxin inhibition)
- Assay type: biochemical
- Run conditions: 2 hours incubation, LPA 20:4 by LC/MS/MS, read-out: LPA formation (20:4) (IC50)
pIC50: −log10 of the molar value.
Test readout: pIC50

Cc1cc(N2CC(C#N)C2)cc2c(N(C)c3nc(-c4ccc(F)cc4)c(C#N)s3)c(C3CC3)nn12: < 6.00

Find the recorded pIC50 belonging to Cc1cc(N2CC3(CN(C(=O)C45CC(C4)C5)C3)C2)cc2c(N(C)c3nc(-c4ccc(F)cc4)c(C#N)s3)c(C3CC3)nn12 and report it.
6.30 to 7.00

Need pIC50 of [2H]c1c(F)c(N2CCN(CC(=O)N3CC(O)C3)CC2)cc2c(N(C)c3nc(-c4ccc(F)cc4)c(C#N)s3)c(CC)nn12 , thanks.
≥ 7.00

Given the entry CCc1nn2c(C)cc(N3CC4(CN(C(=O)CO)C4)C3)cc2c1N(C)c1nc(-c2ccc(F)cc2)c(C#N)s1 , report its measured pIC50.
6.00 to 6.30

Consider the molecule Cc1cc(N2CC3(CN(C(=O)C4CCN(C)C4)C3)C2)cc2c(N(C)c3nc(-c4ccc(F)cc4)c(C#N)s3)c(C3CC3)nn12 (stereo not shown) and give its measured pIC50.
6.30 to 7.00

So what's the measured pIC50 for this one? CCn1nc2nc(C)c(N3CC4(CN(C(=O)C(C)(C)O)C4)C3)cc2c1N(C)c1nc(-c2ccc(F)cc2)c(C#N)s1
≥ 7.00

Dear colleague, I am looking for the recorded pIC50 of the following molecule: Cc1cc(N2CCN(CC(N)=O)CC2)cc2c(N(C)c3nc(-c4ccc(F)cc4)c(C#N)s3)c(C3CC3)nn12
6.00 to 6.30

# pIC50 lookup, item CCc1nn2cc(F)c(N3CC4(CN(C(=O)[C@H]5CCOC5)C4)C3)cc2c1N(C)c1nc(-c2ccc(F)cc2)c(C#N)s1
≥ 7.00

# lookup: pIC50 of CCc1nn2c(C)cc(N3CC4(C3)CN(c3ncco3)C4)cc2c1N(C)c1nc(-c2ccc(F)cc2)c(C#N)s1
6.30 to 7.00

State the recorded pIC50 for this entry: CCc1nn2c(C)cc(N3CCC4(CN(C(=O)C5(O)CC5)C4)C3)cc2c1N(C)c1nc(-c2ccc(F)cc2)c(C#N)s1
6.00 to 6.30

Given the molecule CCc1nn2ccc(N3CCN(CC(=O)N4CC[C@H](O)C4)CC3)cc2c1N(C)c1nc(-c2ccc(F)cc2)c(C#N)s1 , what is its reported pIC50?
≥ 7.00

Could you share which pIC50 value was measured for Cc1cc(N2CC3(CN(C(=O)C(C)(C)O)C3)C2)cc2c(N(C)c3nc(-c4ccc(F)cc4)c(C#N)s3)c(C3CC3)nn12 ?
≥ 7.00

Fill blank: measured pIC50 of the molecule Cc1cc(N2CC3(CN(C(=O)C4(O)CCOCC4)C3)C2)cc2c(N(C)c3nc(-c4ccc(F)cc4)c(C#N)s3)c(C3CC3)nn12 is ____.
≥ 7.00
